Numbers sourced from paper PMC10900215.

Target: ternary complex CRBN/PROTAC/METTL3–14 (Homo sapiens, UniProt Q86U44+Q96SW2)
Construct: methyltransferase domains (MTD) of METTL3 (residues 354–580); His6 (N, cleaved yes); made in house; host or cells: METTL3-MTD/METTL14-MTD: baculovirus/Sf9; CRBN-TBD: E. coli Rosetta (DE3), co-expressed with BirA
Sequence (Q86U44 354-580): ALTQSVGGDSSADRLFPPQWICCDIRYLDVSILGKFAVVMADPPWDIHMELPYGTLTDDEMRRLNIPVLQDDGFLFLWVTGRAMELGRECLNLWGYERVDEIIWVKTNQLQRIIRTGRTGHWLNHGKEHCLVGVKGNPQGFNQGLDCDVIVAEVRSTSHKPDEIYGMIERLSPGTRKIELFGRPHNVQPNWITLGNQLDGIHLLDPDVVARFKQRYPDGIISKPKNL
Sequence (Q9HCE5 107-395 partner limits assumed): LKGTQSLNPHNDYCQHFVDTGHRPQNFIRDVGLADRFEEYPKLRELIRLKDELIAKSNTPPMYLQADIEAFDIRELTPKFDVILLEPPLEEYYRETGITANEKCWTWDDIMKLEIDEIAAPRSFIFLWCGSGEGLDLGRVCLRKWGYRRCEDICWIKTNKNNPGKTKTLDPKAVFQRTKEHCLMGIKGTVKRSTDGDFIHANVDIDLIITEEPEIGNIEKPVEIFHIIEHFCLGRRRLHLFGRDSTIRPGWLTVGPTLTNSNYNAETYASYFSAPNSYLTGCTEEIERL
Sequence (Q96SW2 318-442): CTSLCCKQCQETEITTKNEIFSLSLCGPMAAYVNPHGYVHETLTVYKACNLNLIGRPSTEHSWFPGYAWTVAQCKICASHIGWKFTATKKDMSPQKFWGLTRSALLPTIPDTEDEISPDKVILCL
Assay: FRET-based ternary complex formation assay (TCFA)
Type: binding
Conditions: PROTAC concentration at the maximum of the signal in the TCFA
Assign a class from recorded ECmax (nM) ± SD; defined classes: bottom bin (below 200 nM), middle bin (200 nM to below 900 nM), top bin (900 nM or more)

>  <COMPOUND>
CC1(C)CCN(Cc2cc(F)c(N3CC(=O)NC4(CCN(c5cc(NCC6CCN(C(=O)CN7CCN(c8cccc9c8C(=O)N(C8CCC(=O)NC8=O)C9=O)CC7)CC6)ncn5)CC4)C3)cc2F)CC1 (stereo not shown)

>  <CATEGORY_LABEL>
bottom bin

$$$$
>  <COMPOUND>
CC1(C)CCN(Cc2ccc(N3CC(=O)NC4(CCN(c5cc(NCCCNC(=O)CCOCCOCCOCCNc6cccc7c6C(=O)N(C6CCC(=O)NC6=O)C7=O)ncn5)CC4)C3)cc2)CC1 (stereo not shown)

>  <CATEGORY_LABEL>
top bin

$$$$
>  <COMPOUND>
CC1(C)CCN(Cc2cc(F)c(N3CC(=O)NC4(CCN(c5cc(NCC6CCN(C(=O)CCCCCNc7cccc8c7C(=O)N(C7CCC(=O)NC7=O)C8=O)CC6)ncn5)CC4)C3)cc2F)CC1 (stereo not shown)

>  <CATEGORY_LABEL>
middle bin

$$$$
>  <COMPOUND>
CC1(C)CCN(Cc2cc(F)c(N3CC(=O)NC4(CCN(c5cc(NCCN6CCN(c7cnc(N8CCN(C(=O)CCCNc9cccc%10c9C(=O)N(C9CCC(=O)NC9=O)C%10=O)CC8)nc7)CC6)ncn5)CC4)C3)cc2F)CC1 (stereo not shown)

>  <CATEGORY_LABEL>
bottom bin

$$$$
>  <COMPOUND>
CC1(C)CCN(Cc2cc(F)c(N3CC(=O)NC4(CCN(c5cc(NCc6cccc(CNC(=O)CCCCCCCCNc7cccc8c7CN(C7CCC(=O)NC7=O)C8=O)c6)ncn5)CC4)C3)cc2F)CC1 (stereo not shown)

>  <CATEGORY_LABEL>
middle bin

$$$$
>  <COMPOUND>
CC1(C)CCN(Cc2cc(F)c(N3CC(=O)NC4(CCN(c5cc(NCc6cn(CCCCCCCCCCC(=O)Nc7cccc8c7CN(C7CCC(=O)NC7=O)C8=O)nn6)ncn5)CC4)C3)cc2F)CC1 (stereo not shown)

>  <CATEGORY_LABEL>
top bin

$$$$
>  <COMPOUND>
CC1(C)CCN(Cc2cc(F)c(N3CC(=O)NC4(CCN(c5cc(NCc6cccc(CNC(=O)CCCCCNc7cccc8c7C(=O)N(C7CCC(=O)NC7=O)C8=O)c6)ncn5)CC4)C3)cc2F)CC1 (stereo not shown)

>  <CATEGORY_LABEL>
middle bin

$$$$
>  <COMPOUND>
CC1(C)CCN(Cc2cc(F)c(N3CC(=O)NC4(CCN(c5cc(NCCCNC(=O)CCCCCCCCCCn6cc(CNc7cccc8c7C(=O)N(C7CCC(=O)NC7=O)C8=O)nn6)ncn5)CC4)C3)cc2F)CC1 (stereo not shown)

>  <CATEGORY_LABEL>
top bin

$$$$
>  <COMPOUND>
CC1(C)CCN(Cc2cc(F)c(N3CC(=O)NC4(CCN(c5cc(NCc6ccc(N7CCN(c8cccc9c8C(=O)N(C8CCC(=O)NC8=O)C9=O)CC7)cc6)ncn5)CC4)C3)cc2F)CC1 (stereo not shown)

>  <CATEGORY_LABEL>
bottom bin

$$$$
>  <COMPOUND>
CC1(C)CCN(Cc2cc(F)c(N3CC(=O)NC4(CCN(c5cc(NCc6cn(CCCCCCCCC(=O)Nc7cccc8c7CN(C7CCC(=O)NC7=O)C8=O)nn6)ncn5)CC4)C3)cc2F)CC1 (stereo not shown)

>  <CATEGORY_LABEL>
bottom bin

$$$$
>  <COMPOUND>
CC1(C)CCN(Cc2cc(F)c(N3CC(=O)NC4(CCN(c5cc(NCCN6CCN(C(=O)CCCCCNc7cccc8c7C(=O)N(C7CCC(=O)NC7=O)C8=O)CC6)ncn5)CC4)C3)cc2F)CC1 (stereo not shown)

>  <CATEGORY_LABEL>
bottom bin

$$$$
